assay: photoluminescence quantum yield (fraction); solvent given as SMILES; details: in CC#N
Threshold 0.03: photoluminescence quantum yield strictly smaller gives condition met, otherwise condition not met.

[[record]]
compound = "COC(=O)c1nc(-c2ccc(OC)cc2)oc1C"
category = "condition not met"

[[record]]
compound = "NNC(=O)NNN1C(=O)c2cc(S(=O)(=O)[O-])cc3c(N)c(S(=O)(=O)[O-])cc(c23)C1=O"
category = "condition not met"

[[record]]
compound = "CN(C)c1ccc(/C=C2\\OC(=O)c3cc(N)ccc32)cc1"
category = "condition not met"

[[record]]
compound = "C[n+]1ccn(CCCCc2ccc3c(c2)c2ccccc2n3-c2cc(C#N)c(C#N)cc2F)c1"
category = "condition met"

[[record]]
compound = "CN(C)CCCN1c2ccccc2Sc2ccc(C(F)(F)F)cc21"
category = "condition met"

[[record]]
compound = "COc1cccc(-c2c3ccccc3c3n2[B-](F)(F)[N+]2=Cc4c5ccccc5c(-c5cccc(OC)c5)n4[B-](F)(F)[N+]2=C3)c1"
category = "condition not met"

[[record]]
compound = "F[B-]1(F)N2C(=Nc3cccc4cccc2c34)c2cccc[n+]21"
category = "condition met"

[[record]]
compound = "CCCCCCCC[n+]1ccc(-c2cc[n+](CCCCCCCC)cc2)cc1"
category = "condition met"

[[record]]
compound = "Cc1cc(=O)c2c(ccc3ccc(O)cc32)o1"
category = "condition met"

[[record]]
compound = "Cc1cc(C)c(C2=C3C=C(c4ccccc4)C(c4ccccc4)=[N+]3[B-](F)(F)n3c2cc(-c2ccccc2)c3-c2ccccc2)c(C)c1"
category = "condition not met"

[[record]]
compound = "CCC1=C(C)c2cc3c(OC)cc(OC)cc3c(=O)n2C1=O"
category = "condition not met"

[[record]]
compound = "N#Cc1ccc(/C=C2\\OC(=O)c3cc(N)ccc32)cc1"
category = "condition not met"

[[record]]
compound = "F[B-]1(F)n2cccc2C(c2c3ccccc3c(-c3ccccc3)c3ccccc23)=C2C=CC=[N+]21"
category = "condition met"

[[record]]
compound = "CC1(C)CC(=O)C2=C(C1)Oc1ccc3ccc(O)cc3c1C2c1ccccn1 (stereo unspecified)"
category = "condition met"

[[record]]
compound = "c1ccc(-c2nn(-c3ccccc3)c3nc4ccc(N(c5ccccc5)c5cccc6ccccc56)cc4cc23)cc1"
category = "condition not met"


* * *

assay: photoluminescence quantum yield (fraction); solvent given as SMILES; details: in ClCCl
Recorded photoluminescence quantum yield, one value per entry.
Measurement Kind: photoluminescence quantum yield

[[record]]
smiles_repr = "F[B-]1(F)n2c(NCc3ccccc3)ccc2C(c2c(Cl)cccc2Cl)=C2C=CC(NCc3ccccc3)=[N+]21"
measured = 0.52

[[record]]
smiles_repr = "Cc1cc(C)c(B(c2c(C)cc(C)cc2C)N2c3ccccc3C3(c4ccccc4-c4ccccc43)c3ccccc32)c(C)c1"
measured = 0.539

[[record]]
smiles_repr = "CCN1/C(=C\\c2c(-c3ccc(N(C)C)cc3)c(=O)c2=O)C=Cc2ccccc21"
measured = 0.001

[[record]]
smiles_repr = "O=C1c2cc3ccccc3cc2C2=Nc3ccc4ccccc4[n+]3[B-](F)(F)N12"
measured = 0.93

[[record]]
smiles_repr = "COc1ccc2cc(C3=[N+]4C(=Nc5c(-c6ccc7ccccc7c6)cc(-c6ccc7cc(OC)ccc7c6)n5[B-]4(F)F)C(c4ccc5ccccc5c4)=C3)ccc2c1"
measured = 0.29

[[record]]
smiles_repr = "O=Cc1ccc(-c2cccc(-c3nc4ccccc4s3)c2O)s1"
measured = 0.164

[[record]]
smiles_repr = "COc1ccc(N2c3sc4ccccc4c3Sc3c2sc2ccccc32)cc1"
measured = 0.23

[[record]]
smiles_repr = "COc1ccc(-c2csc(-c3ccncc3)n2)cc1"
measured = 0.089

[[record]]
smiles_repr = "F[B-]1(F)n2c(c3cccc4cccc2c43)=Nc2cccc(Cl)[n+]21"
measured = 0.99

[[record]]
smiles_repr = "c1ccc(-c2ccc3c4ccc(-c5ccccc5)c5c(-c6ccccc6)ccc(c6cccc2c63)c54)cc1"
measured = 0.94

[[record]]
smiles_repr = "CCCCCCCCCCCCN1C(=O)c2c(c3ccc4cc(-c5ccc(OC)cc5)c(OC)cc4c3c3c2ccc2cc(-c4ccc(OC)cc4)c(OC)cc23)C1=O"
measured = 0.196


* * *

assay: photoluminescence quantum yield (fraction); solvent given as SMILES; conditions: in C1CCOC1
Measurement Kind: photoluminescence quantum yield

[[record]]
smiles_repr = "c1ccc2c(c1)c1ccccc1c1[nH]c(-c3ccc(-c4nc5c6ccccc6c6ccccc6c5[nH]4)cc3)nc21"
measured = 0.79

[[record]]
smiles_repr = "CCC1(CC)c2ccccc2-c2c1c1c(c3c2C(CC)(CC)c2cc(N(c4ccccc4)c4ccccc4)ccc2-3)C(CC)(CC)c2cc(N(c3ccccc3)c3ccccc3)ccc2-1"
measured = 0.36

[[record]]
smiles_repr = "CCN(CC)c1ccc(-c2nc3c4ccccc4n(C)c3nc2-c2ccc(B(c3c(C)cc(C)cc3C)c3c(C)cc(C)cc3C)cc2)cc1"
measured = 0.27

[[record]]
smiles_repr = "CCN(CC)c1ccc(-c2cc3c(s2)c(C(=O)OC)cc(=O)n3C)cc1"
measured = 0.97


* * *

experiment: photoluminescence quantum yield (fraction); solvent given as SMILES; settings: in Cc1ccccc1
Recorded photoluminescence quantum yield, one value per entry.
Measurement Kind: photoluminescence quantum yield

[[record]]
compound = "N#Cc1c(-n2c3ccc(Br)cc3c3cc(Br)ccc32)c(C#N)c(-n2c3ccc(Br)cc3c3cc(Br)ccc32)c(-n2c3ccc(Br)cc3c3cc(Br)ccc32)c1-n1c2ccc(Br)cc2c2cc(Br)ccc21"
measured = 0.67

[[record]]
compound = "CN(C)c1ccc(C2=Nc3scc(-c4ccc(C#N)cc4)[n+]3[B-](F)(F)O2)cc1"
measured = 0.62

[[record]]
compound = "COc1cccc(-c2c3ccccc3c3n2[B-](F)(F)[N+]2=Cc4c5ccccc5c(-c5cccc(OC)c5)n4[B-](F)(F)[N+]2=C3)c1"
measured = 0.34

[[record]]
compound = "c1ccc(N2c3ccc4ccccc4c3-c3c4ccccc4cn[n+]3[B-]2(c2ccccc2)c2ccccc2)cc1"
measured = 0.05

[[record]]
compound = "COC(=O)/C(C#N)=c1\\s/c(=c2/s/c(=C(/C#N)C(=O)OC)c3cc(-c4ccc(C)cc4)sc23)c2sc(-c3ccc(C)cc3)cc12"
measured = 0.325

[[record]]
compound = "O=Cc1ccc2c(c1)c1ccccc1n2-c1cc2ccccc2c2ccccc12"
measured = 0.022

[[record]]
compound = "N#C/C(=C/Nc1ccc(C#N)cc1)c1nc(-c2ccccc2)cs1"
measured = 0.0001

[[record]]
compound = "COc1cc2c3c4c(c5ccc(C(C)(C)C)cc5c5cc(C(C)(C)C)cc(c2c(OC)c1OC)c45)=[N+]1C3=Nc2c3c4cc(OC)c(OC)c(OC)c4c4cc(C(C)(C)C)cc5c6cc(C(C)(C)C)ccc6c(c3c54)n2[B-]1(F)F"
measured = 0.07

[[record]]
compound = "CCC1=C(C)C2=Cc3c4ccccc4c4n3[B-](c3ccc5ccc6cccc7ccc3c5c67)(Oc3ccccc3-4)[N+]2=C1C (stereo not given)"
measured = 0.66

[[record]]
compound = "F[B-]1(F)n2cccc2C(c2c3ccccc3c(-c3ccccc3)c3ccccc23)=C2C=CC=[N+]21"
measured = 0.007

[[record]]
compound = "CSc1cc(-c2cc3cc4c5c(c3oc2=O)CCCN5CCC4)oc(=O)c1C#N"
measured = 0.71

[[record]]
compound = "O=C1/C(=C\\c2ccc(N(c3ccccc3)c3ccccc3)cc2)S(=O)(=O)c2ccccc21"
measured = 0.559

[[record]]
compound = "COCCC1=Cc2nc1ccc1[nH]c(cc1CCOC)c1nc(c(NC(=O)CCCC(=O)O)cc3[nH]c2cc3CCOC)C(CCOC)=C1"
measured = 0.15

[[record]]
compound = "CC1(C)c2ccccc2N2c3ccccc3C3(c4cc(C#N)ccc4-c4ccc(C#N)cc43)c3cccc1c32"
measured = 0.71

[[record]]
compound = "CC(C)CCC[C@@H](C)[C@H]1CC[C@H]2[C@@H]3CC=C4C[C@@H](OC(=O)Oc5cc(/C=C/C=C/c6ccc(N(C)C)cc6)ccc5[N+](=O)[O-])CC[C@]4(C)[C@H]3CC[C@]12C"
measured = 0.17


* * *

assay: photoluminescence quantum yield (fraction); solvent given as SMILES; details: in CC(C)O
Measurement Kind: photoluminescence quantum yield

[[record]]
smiles_repr = "COc1ccc(/C=C/c2ccccc2)cc1"
measured = 0.011

[[record]]
smiles_repr = "CN(C)c1ccc(/C=C2\\OC(=O)c3cc(N)ccc32)cc1"
measured = 0.31

[[record]]
smiles_repr = "N#Cc1cccc2c(N)c(-c3nn([C@H]4C[C@H](O)[C@@H](CO)O4)c4ncnc(N)c34)ccc12"
measured = 0.19


* * *

assay: photoluminescence quantum yield (fraction); solvent given as SMILES; conditions: in ClCCl
# label = 1 (yes) if photoluminescence quantum yield >= 0.3 else 0 (no)

[[record]]
molecule = "CCCCC(CC)COc1ccc2nc(-c3ccc(-c4cccs4)s3)sc2c1 (centres undefined)"
category = "0 (no)"

[[record]]
molecule = "CCN1c2ccc(/C=N/Nc3ccccn3)cc2Sc2cc(-c3ccccc3)ccc21"
category = "0 (no)"

[[record]]
molecule = "CCN(CC)c1ccc2cc(-c3csc(NC(C)=O)c3C#N)c(=O)oc2c1"
category = "1 (yes)"

[[record]]
molecule = "COC(=O)CNC(=O)c1nc2c(N(C)C)nc(N(C)C)nc2n1Cc1ccccc1"
category = "1 (yes)"

[[record]]
molecule = "c1ccc(B2Nc3cc4c(cc3-c3sc5ccccc5c32)NB(c2ccccc2)c2c-4sc3ccccc23)cc1"
category = "0 (no)"

[[record]]
molecule = "Fc1ccc(C#Cc2cc(C#Cc3ccc(F)cc3)c(C#Cc3ccc(F)cc3)c(C#Cc3ccc(F)cc3)c2C#Cc2ccc(F)cc2)cc1"
category = "1 (yes)"

[[record]]
molecule = "COc1ccc(C2=CC3=C(c4c(C)cc(C)cc4C)c4cc(-c5ccc(OC)cc5)c(-c5ccc(OC)cc5)n4[B-](F)(F)[N+]3=C2c2ccc(OC)cc2)cc1"
category = "1 (yes)"

[[record]]
molecule = "N#CC(C#N)=Cc1ccc(-c2ccc(-c3nc4ccccc4s3)c(O)c2)s1"
category = "0 (no)"

